The values you see were collected from PubChem BioAssay AID2745.

Property: LAP4-GFP fluorescence (kMESF); scope: individual compounds
experimental-details: LAP4-GFP modulation potency in yeast, dose response, cell-based, MLPCN hits, flow cytometry (AID 2745);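 also: yeast exposed to compound for three hours at 30 degrees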
setup-conditions: S. cerevisiae LAP4-GFP reporter, flow cytometry fluorescence; at 33 µM (top of the series)
Activity calls are given as the source filed them. No rule for the calls is given here.

{"columns": ["compound", "endpoint-label", "value"],
 "data": [
  ["C[C@@]12C(=O)OC(=O)[C@]1(C)C1CCC2O1", "LAP4-GFP fluorescence (kMESF)", "9.15 kMESF (inactive)"]
]}

input: Endpoint output: LAP4-GFP fluorescence (kMESF) of "Cc1ccc(C(=O)NNC(=S)NC(=O)c2ccco2)cc1" . Value?
output: 7.42 kMESF (inactive)

input: Endpoint output: LAP4-GFP fluorescence (kMESF) of O=C(CS(=O)c1ccccc1[N+](=O)[O-])Oc1ccc(Br)cc1 (stereo unspecified) . Value?
output: 21.8 kMESF (inactive)

input: Endpoint output: LAP4-GFP fluorescence (kMESF) of "C#CCOCCOCCOCCNc1nc(N2CCN(C(=O)CCCCCCCCCCNC(=O)[C@@H](CCC(=O)O)n3cc(CCCCCN)nn3)CC2)nc(N2CCN(C(=O)CCCCCCCCCCNC(=O)[C@H](CCCCN)n3cc(C[C@@H](C)CC)nn3)CC2)n1" . Value?
output: 6.47 kMESF (inactive)

input: Endpoint output: LAP4-GFP fluorescence (kMESF) of "Cc1c(N2C(=O)/C(=C\c3ccccc3O)SC2=S)c(=O)n(-c2ccccc2)n1C" . Value?
output: 10.8 kMESF (inactive)

input: Endpoint output: LAP4-GFP fluorescence (kMESF) of "CCOC(=O)C1=C(O)c2ccccc2C(=O)/C1=C\c1ccc(C)cc1" . Value?
output: -35.8 kMESF (inactive)

input: Endpoint output: LAP4-GFP fluorescence (kMESF) of "O=C(c1ccc(Cl)c([N+](=O)[O-])c1)N1CCN(c2ccccc2)CC1" . Value?
output: 8.26 kMESF (inactive)

input: Endpoint output: LAP4-GFP fluorescence (kMESF) of "Oc1ccc(COCc2ccccc2)c2cccnc12" . Value?
output: 20.4 kMESF (inactive)

input: Endpoint output: LAP4-GFP fluorescence (kMESF) of "CCc1ccc(C(=O)/C=C/c2ccc([N+](=O)[O-])o2)cc1" . Value?
output: 10.5 kMESF (inactive)

input: Endpoint output: LAP4-GFP fluorescence (kMESF) of "Cc1ccc(/C=C2\SC(=S)N(Cc3ccccc3)C2=O)o1" . Value?
output: 18.1 kMESF (inactive)

input: Endpoint output: LAP4-GFP fluorescence (kMESF) of "CCCc1nnc(NC(=O)c2c(O)c3cccc4c3n(c2=O)CCC4)s1" . Value?
output: 0.3 kMESF (inactive)

input: Endpoint output: LAP4-GFP fluorescence (kMESF) of "CS(=O)(=O)c1nc(-c2ccccc2)cc(C(F)(F)F)n1" . Value?
output: 16.6 kMESF (inactive)

input: Endpoint output: LAP4-GFP fluorescence (kMESF) of "O=C(Oc1oc(-c2ccco2)nc1C=Nc1ccccc1)c1ccco1" . Value?
output: 23.7 kMESF (inactive)

input: Endpoint output: LAP4-GFP fluorescence (kMESF) of "O=C1N(c2ccccc2C(F)(F)F)O[C@]1(c1ccccc1)C1CCCCC1" . Value?
output: 2.33 kMESF (inactive)

input: Endpoint output: LAP4-GFP fluorescence (kMESF) of "O=C(OCC(=O)N1CCN(C(=O)c2ccco2)CC1)c1cc(-c2ccc(Cl)c(Cl)c2Cl)nc2ccccc12" . Value?
output: 4.61 kMESF (inactive)

input: Endpoint output: LAP4-GFP fluorescence (kMESF) of CC(Oc1cc2oc(=O)c3c(c2cc1Cl)CCC3)C(=O)NCCN1CCOCC1 (stereo unspecified) . Value?
output: 2.43 kMESF (inactive)
